- assayProtocol: Toxicokinetics after daily dermal application
- runConditions: Göttingen, minipig, plasma, topical or ocular, […], Tmax, Group 4, minocycline […] + adapalene […] FCD105 Foam, Day 91, median
Counter-ions that a name gives are not always drawn.

| compound | unitSpec | Tmax |
| --- | --- | --- |
| CN(C)c1ccc(O)c2c1C[C@H]1C[C@H]3[C@H](N(C)C)C(O)=C(C(N)=O)C(=O)[C@@]3(O)C(O)=C1C2=O [minocycline, minocycline hydrochloride] | h | 2 |

* * *

- assayProtocol: Toxicokinetics after daily dermal application
- runConditions: Göttingen, minipig, plasma, topical or ocular, […], Tmax, Group 5, adapalene […] + minocycline […] FCD105 Foam, Day 1, median
measure: Tmax (h)

| structureAsSmiles | measure | number |
| --- | --- | --- |
| COc1ccc(-c2ccc3cc(C(=O)O)ccc3c2)cc1C12CC3CC(CC(C3)C1)C2 | Tmax | 24 |
